Assign GI50 to each entry below.
- System: A498 renal
- MEASUREMENT DESCRIPTION: NCI tumour cell line growth inhibition, 48 h

Entry under review: CNC(=O)c1ccc2cc(C3(O)CCn4cncc43)ccc2c1 (stereo not given) . Reported GI50?
> 100 µM

Entry under review: O=C(c1ccco1)c1nc2cc(F)ccc2[n+]([O-])c1C(F)(F)F . Reported GI50?
86.6 µM

Entry under review: COc1cnc2c(c1)C(=O)c1c-2n(CCCN2CCC(O)CC2)c(=O)c2cc(F)ccc12 . Reported GI50?
0.198 µM

Entry under review: COC(=O)[C@]12CC[C@@H](C)[C@H](C)[C@@H]1C1=CC[C@@H]3[C@@]4(C)C(C=O)=C[C@@](C)(COC(=O)c5ccco5)[C@@H]4C(=O)C[C@@]3(C)[C@]1(C)CC2 . Reported GI50?
12.1 µM

Entry under review: CC(=O)c1cc2c(cc1Nc1c3ccccc3nc3occ(Cl)c13)OCO2 . Reported GI50?
0.105 µM

Entry under review: COc1ccc2c(c1)C(=O)c1c-2c(Nc2ccc(C(C)=O)cc2)nc2ccccc12 . Reported GI50?
35.2 µM

Entry under review: C=CC[P+](c1ccccc1)(c1ccccc1)c1ccccc1 . Reported GI50?
7.09 µM

Entry under review: O=C(CSC(c1ccccc1)c1ccccc1)N/N=C/c1cccc(Cl)c1 . Reported GI50?
14.9 µM

Entry under review: CCOc1cc2c(cc1O)/C(=N\O)C[C@@H]1[C@@H]2CC[C@]2(C)[C@@H](O)CC[C@@H]12 . Reported GI50?
0.604 µM

Entry under review: O=C(Nc1cccc(Oc2nnc(Cl)c3ccccc23)c1)Nc1ccc(Cl)c(C(F)(F)F)c1 . Reported GI50?
0.275 µM
